target-system: rat liver COMT (Rattus norvegicus)
Construct: the organs were immediately removed and homogenised in 5 mM phosphate buffer of pH 7.8; from tissue; host or cells: rat liver homogenate (Wistar rats, dosed orally; ex vivo activity)
Sequence (P22734 1-264): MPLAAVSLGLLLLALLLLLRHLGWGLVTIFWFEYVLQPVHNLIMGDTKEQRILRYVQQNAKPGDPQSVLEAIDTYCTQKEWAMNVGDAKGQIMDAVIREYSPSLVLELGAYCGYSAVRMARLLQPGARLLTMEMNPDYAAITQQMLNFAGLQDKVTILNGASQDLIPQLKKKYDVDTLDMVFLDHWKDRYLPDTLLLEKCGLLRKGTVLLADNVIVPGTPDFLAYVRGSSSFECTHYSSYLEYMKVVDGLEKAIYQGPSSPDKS
procedure-details: Rat liver COMT activity after oral administration of test compounds
Format: in vivo
condition-parameters: 3 mg/kg oral, 1 h after administration
The entries below come with measured Rat Liver COMT activity (% control) values attached.
Value expressed in % control; do not type the unit.

# annotated cases, reported Rat Liver COMT activity (% control) shown
{"columns": ["compound", "target-system", "recorded-result"],
 "data": [
  ["O=[N+]([O-])c1cc(-c2nc(-c3ccc[n+]([O-])c3C(F)(F)F)no2)cc(O)c1O", "rat liver COMT (Rattus norvegicus)", 3.6],
  ["Cc1ccc(C(=O)c2cc(O)c(O)c([N+](=O)[O-])c2)cc1 [Tolcapone, reference compound]", "rat liver COMT (Rattus norvegicus)", 18.3],
  ["Cc1c(Cl)c(C)[n+]([O-])c(Br)c1-c1noc(-c2cc(O)c(O)c([N+](=O)[O-])c2)n1", "rat liver COMT (Rattus norvegicus)", 10.6]
]}

Documented Rat Liver COMT activity (% control) of Cc1cc(C(F)(F)F)c(-c2noc(-c3cc(O)c(O)c([N+](=O)[O-])c3)n2)c[n+]1[O-] : 6.3
